# Lookup of reported IC50 keyed by entry
tgt: Neuropeptide Y receptor type 5 (Mus musculus, UniProt O70342)
Sequence (O70342 whole entry): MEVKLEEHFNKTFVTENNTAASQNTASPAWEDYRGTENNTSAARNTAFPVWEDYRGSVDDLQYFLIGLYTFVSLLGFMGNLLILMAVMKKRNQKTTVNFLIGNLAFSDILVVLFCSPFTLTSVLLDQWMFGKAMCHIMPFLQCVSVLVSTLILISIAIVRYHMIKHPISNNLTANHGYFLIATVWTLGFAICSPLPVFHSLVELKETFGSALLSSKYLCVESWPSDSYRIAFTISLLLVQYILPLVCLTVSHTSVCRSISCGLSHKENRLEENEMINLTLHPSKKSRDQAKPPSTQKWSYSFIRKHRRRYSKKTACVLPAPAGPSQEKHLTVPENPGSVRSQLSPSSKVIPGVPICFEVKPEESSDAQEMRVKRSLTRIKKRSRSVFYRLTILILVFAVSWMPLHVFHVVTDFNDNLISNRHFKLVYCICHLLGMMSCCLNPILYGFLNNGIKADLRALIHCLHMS
protocol notes: Displacement of [125I]PYY from mouse NPY Y5 receptor

compound	tgt	unit spec	IC50
CC(C)(C)S(=O)(=O)c1ccc2[nH]c(N3CCOC(c4ccccc4)C3)nc2c1 (configuration not stated)	Neuropeptide Y receptor type 5 (Mus musculus, UniProt O70342)	nM	4.27
CCCS(=O)(=O)c1ccc2nc(N3CCCC(c4ccccc4)C3)[nH]c2c1 (configuration not stated)	Neuropeptide Y receptor type 5 (Mus musculus, UniProt O70342)	nM	0.29
O=S(=O)(CC(F)(F)F)c1ccc2[nH]c(N3CCOC(c4ccccc4)C3)nc2c1 (configuration not stated)	Neuropeptide Y receptor type 5 (Mus musculus, UniProt O70342)	nM	0.21
CCS(=O)(=O)c1ccc2[nH]c(N3CCOC(c4ccc(Cl)cc4)C3)nc2c1 (configuration not stated)	Neuropeptide Y receptor type 5 (Mus musculus, UniProt O70342)	nM	0.85
CCCS(=O)(=O)c1ccc2[nH]c(N3CCC(c4ccccc4)C3)nc2c1 (configuration not stated)	Neuropeptide Y receptor type 5 (Mus musculus, UniProt O70342)	nM	1.01
CC(C)(C)S(=O)(=O)N[C@H]1CC[C@H](C(=O)Nc2ccc(C(F)(F)F)cn2)CC1	Neuropeptide Y receptor type 5 (Mus musculus, UniProt O70342)	nM	4.6
CC(C)S(=O)(=O)c1ccc2nc(N3CCOC(c4ccccc4)C3)[nH]c2c1 (configuration not stated)	Neuropeptide Y receptor type 5 (Mus musculus, UniProt O70342)	nM	1.33
